# Organism: Homo sapiens
# Assay procedure: Selectivity ratio of Ki for human adrenergic beta-1 receptor to Ki for human adrenergic beta-3 receptor
Property label: Ratio Ki
Give the figure only, with no unit attached.

Answered examples (3):
## Task Please indicate Ratio Ki recorded for COc1ccc(CNC[C@H](O)COc2ccc(O)c(NS(C)(=O)=O)c2)cc1
## Result 3

## Task Please report Ratio Ki for the following molecule: COc1cccc([C@H](CCc2ccccc2)NC[C@H](O)Cc2ccc(O)c(NS(C)(=O)=O)c2)c1
## Result 1

## Task Tell us which Ratio Ki value is on record for COc1ccc([C@H](CCc2ccccc2)NC[C@H](O)Cc2ccc(O)c(NS(C)(=O)=O)c2)cc1OC
## Result 111

Proceed to the following item.
## Task Identify Ratio Ki associated with the molecule COc1ccc(CNCC(O)Cc2ccc(O)c(NS(C)(=O)=O)c2)cc1 (centres undefined)
## Result 2
